system: U2932 parental; assay: cell proliferation relative to vehicle (% of vehicle); higher = less growth inhibition; settings: 50 nM; 72 h
Test Readout: cell proliferation
Give a plain numeric answer without units written out.

Solved entries (count: 8):
[Q] // cell proliferation lookup, key: `N#C/C(=C(/N)Sc1ccc(N)cc1)c1ccccc1C(F)(F)F`
[A] 104

[Q] Lookup `COc1ccc2c(Oc3ccc(NC(=O)c4c(C)n(CC(C)(C)O)n(-c5ccccc5)c4=O)nc3)ccnc2c1`
[A] 103

[Q] Lookup `Cc1cc(CS(=O)(=O)c2ccccc2)cc(OCc2ccc(CN3CCC[C@@H]3CO)cc2)c1`
[A] 97.2

[Q] Lookup `Cc1nc(C(=O)NCC(=O)O)c(O)c2ccc(Oc3ccccc3)cc12`
[A] 98.3

[Q] Lookup COc1nc(C)cnc1NS(=O)(=O)c1cccnc1-c1ccc(-c2nnco2)cc1 [Zibotentan (ZD4054)]
[A] 97.2

[Q] Lookup `NC(=O)c1ncn([C@@H]2O[C@H](CO)[C@@H](O)[C@H]2O)c1O`
[A] 104

[Q] Lookup `FC(F)c1nc2ccccc2n1-c1nc(N2CCOCC2)nc(N2CCOCC2)n1`
[A] 89.9

[Q] Lookup COc1ccccc1OCC(O)CN1CCN(CC(=O)Nc2c(C)cccc2C)CC1 (centres undefined)
[A] 106

Attention now shifts to the item below.
[Q] // cell proliferation lookup, key: `CN1CCC(Nc2nc(Nc3ccc(Oc4ccccc4)cc3)c3c(=O)[nH]cc(Br)c3n2)CC1`
[A] 89.6
